tested on: Mycobacterium tuberculosis; assay: Antimycobacterial activity against Mycobacterium tuberculosis H37Rv after 16 to 24 hrs by microplate alamar blue assay; assay type: functional
endpointName: MIC (µM)

[
  {
    "compound": "Cc1nonc1C(=O)NC1CCCc2c1cnn2-c1ccc(N)cc1 (stereo unspecified)",
    "endpointName": "MIC",
    "sign": ">",
    "reportedValue": 128
  },
  {
    "compound": "Cc1nonc1C(=O)NC1CCCc2c1cnn2-c1ccc(C(C)(C)C)cc1 (stereo unspecified)",
    "endpointName": "MIC",
    "sign": "=",
    "reportedValue": 1.7
  },
  {
    "compound": "Cc1nonc1C(=O)NC1CCCc2c1cnn2-c1ccc(C(F)(F)F)cc1 (stereo unspecified)",
    "endpointName": "MIC",
    "sign": "=",
    "reportedValue": 1.9
  },
  {
    "compound": "Cc1nonc1CNC1CCCc2c1cnn2-c1ccc(C(C)(C)C)cc1 (stereo unspecified)",
    "endpointName": "MIC",
    "sign": "=",
    "reportedValue": 38.6
  },
  {
    "compound": "Cc1cc(C)cc(-n2ncc3c(NC(=O)c4nonc4C)cccc32)c1",
    "endpointName": "MIC",
    "sign": "=",
    "reportedValue": 117
  },
  {
    "compound": "Cc1nonc1C(=O)NC1CCCc2c1cnn2-c1ccc([N+](=O)[O-])cc1 (stereo unspecified)",
    "endpointName": "MIC",
    "sign": ">",
    "reportedValue": 128
  }
]

* * *

List of Tmax values.
test: Tmax in BALB/c mouse at 50 mg/kg, po; format: ADME, organism-based; design: dose 50 mg/kg, route oral; details: in vivo
endpointName: Tmax (min)

[
  {
    "molecule": "Cc1nonc1C(=O)NC1CCCc2c1cnn2-c1ccc(C(C)(C)C)cc1 (configuration not stated)",
    "reportedValue": 30
  },
  {
    "molecule": "Cc1nonc1C(=O)NC1CCCc2c1cnn2-c1ccc(OC(F)(F)F)cc1 (configuration not stated)",
    "reportedValue": 30
  }
]

* * *

tested on: Mycobacterium tuberculosis; assay: Antimycobacterial activity against Mycobacterium tuberculosis H37Rv after 16 to 24 hrs by microplate alamar blue assay; format: functional
Threshold 0.7 µM: MIC strictly smaller gives true, otherwise false.

[
  {
    "compound": "Cc1nonc1C(=O)NC1CCCc2c1cnn2-c1ccccc1C(F)(F)F (stereo not given)",
    "labelClass": "false"
  },
  {
    "compound": "CO[C@H]1/C=C/O[C@@]2(C)Oc3c(C)c(O)c4c(O)c(c(/C=N/N5CCN(C)CC5)c(O)c4c3C2=O)NC(=O)/C(C)=C\\C=C\\[C@H](C)[C@H](O)[C@@H](C)[C@@H](O)[C@@H](C)[C@H](OC(C)=O)[C@@H]1C [RIFAMPIN]",
    "labelClass": "true"
  },
  {
    "compound": "Cc1nonc1C(=O)NC1CCCc2c1cnn2-c1ccc(NC(=O)C(C)(C)C)cc1 (stereo not given)",
    "labelClass": "false"
  },
  {
    "compound": "Cc1nonc1C(=O)Nc1ccc(-n2ncc3c2CCCC3NC(=O)c2nonc2C)cc1 (stereo not given)",
    "labelClass": "false"
  },
  {
    "compound": "CC(C)(C)c1ccc(-n2ncc3c(NC(=O)c4ccc5c(c4)no[n+]5[O-])cccc32)cc1",
    "labelClass": "true"
  },
  {
    "compound": "Cc1cc(C)cc(-n2ncc3c2CCCC3NC(=O)c2ccc3c(c2)no[n+]3[O-])c1 (stereo not given)",
    "labelClass": "false"
  },
  {
    "compound": "COC(=O)c1ccc(C(=O)NC2CCCc3c2cnn3-c2ccc(C(C)(C)C)cc2)nc1 (stereo not given)",
    "labelClass": "false"
  },
  {
    "compound": "COc1ccc(-n2ncc3c2CCCC3NC(=O)c2nonc2C)cc1 (stereo not given)",
    "labelClass": "false"
  },
  {
    "compound": "Cc1nonc1C(=O)NC1CCCc2c1cnn2-c1ccc(NC(=O)C(F)(F)F)cc1 (stereo not given)",
    "labelClass": "false"
  }
]

Origin of values: ChEMBL document CHEMBL1156793
